Test system: DeltatarO mutant
Method notes: S. aureus survival, RN4220 and DeltatarO strains – OD600, teichoic acid synthesis inhibitors, primary screen (AID 463173)
Particulars: S. aureus RN4220 wild type/DeltatarO growth, OD600, 18 h, hits give low values, screened at 18.75 µg/mL (by protocol)
Out of some 52,000 compounds screened, about 4,300 (8.3%) were called active. This excerpt belongs to a sample that is enriched for actives.
Exercise: for every item that follows, state its recorded survival.
Report the value in % with no unit label.

Q. Please report survival for the following compound: CCN1CCN(c2cc(C)c3cc(NC(=O)c4ccccc4F)ccc3n2)CC1
A. 43

Q. Please report survival for the following compound: O=C(Nc1nnc(S(=O)(=O)N2CCCCCC2)s1)c1ccccc1Cl
A. 38

Q. Please report survival for the following compound: Cc1ccc(-n2nc(C)c3c(C(=O)Nc4ccccc4C(F)(F)F)cc(C)nc32)cc1
A. 95

Q. Please report survival for the following compound: Cc1ccccc1C(=O)Nc1nnc(S(=O)(=O)N2CCCCCC2)s1
A. 47

Q. Please report survival for the following compound: Cc1cc(C)c(NC(=O)c2cc(C)nc3c2c(C)nn3-c2cccc(F)c2)c(C)c1
A. 94

Q. Please report survival for the following compound: Cc1cc(C(=O)Nc2cccc(C(F)(F)F)c2)c2c(C)nn(-c3cccc(F)c3)c2n1
A. 17

Q. Please report survival for the following compound: Cc1ccc(C)c(NC(=O)n2ncc3cc(Cl)ccc32)c1
A. 82

Q. Please report survival for the following compound: COc1ccc(OC)c(NC(=O)CSC2=Nc3ccccc3C3=NC(CCC(=O)NCc4ccccc4)C(=O)N23)c1 (stereo not drawn)
A. 0

Q. Please report survival for the following compound: CC(C)(C)c1ccc(C(=O)N2CCCC(c3nc4c(nnn4Cc4cccc(F)c4)c(=O)[nH]3)C2)cc1 (stereo not drawn)
A. 7

Q. Please report survival for the following compound: O=C(Nc1nnc(S(=O)(=O)N2CCCC2)s1)c1ccccc1Cl
A. 117

Q. Please report survival for the following compound: Cc1ccc(-c2cn3nc(N4CCCC(C(=O)NCc5ccc(F)cc5)C4)sc3n2)cc1 (stereo not drawn)
A. 86

Q. Please report survival for the following compound: O=C(Nc1nnc(S(=O)(=O)N2CCOCC2)s1)c1ccccc1Cl
A. 79

Q. Please report survival for the following compound: COc1cc(OC)c(NC(=O)c2cnn(-c3ccccc3)c2-n2cccc2)cc1Cl
A. 84

Q. Please report survival for the following compound: COc1cccc(CNC(=O)Cn2c(=O)cc(C(F)(F)F)c3c(C)nn(C)c32)c1OC
A. 90

Q. Please report survival for the following compound: CCS/C(=C(\C#N)C(N)=O)c1ccc(-c2ccccc2)[nH]1
A. 59

Q. Please report survival for the following compound: Cc1cc(C)cc(NC(=O)c2cc(C)nc3c2c(C)nn3-c2ccccc2)c1
A. -5

Q. Please report survival for the following compound: COc1ccc(CC(=O)Nc2ccc3nc(N4CCCCC4)cc(C)c3c2)cc1
A. 51

Q. Please report survival for the following compound: CCc1cccc(C)c1NC(=O)c1cc(C)nc2c1c(C)nn2-c1cccc(Cl)c1C
A. 88

Q. Please report survival for the following compound: O=C(Nc1nnc(S(=O)(=O)N2CCCC2)s1)c1ccccc1F
A. 28

Q. Please report survival for the following compound: O=C(Nc1ccccc1C(F)(F)F)n1ncc2cc(Cl)ccc21
A. 104

Q. Please report survival for the following compound: Cc1ccc(NC(=O)Nc2ccc3nc(N4CCN(C)CC4)cc(C)c3c2)cc1C
A. 101

Q. Please report survival for the following compound: Cc1cc2c(cc3c(SCc4cccc(F)c4)nnc(C)n32)o1
A. 68

Q. Please report survival for the following compound: O=C(O)c1ccccc1C(=O)Nc1cccnc1
A. 89
